# Tested System: T1, 4H331-bN
# T1 chain: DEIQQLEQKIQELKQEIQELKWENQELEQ
# Method: two-hybrid library CCNG1;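 also: natural log of median RNA to DNA barcode read ratio; higher means stronger binding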
Could you please report measured interaction score for the items listed next?
Answers are plain numbers.

Past entries and their recorded results:
Binder: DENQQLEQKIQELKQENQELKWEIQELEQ [4H1369-bN]
Measured: -1.16

Binder: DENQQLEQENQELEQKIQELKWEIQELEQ [4H1193-bN]
Measured: -1.06

Binder: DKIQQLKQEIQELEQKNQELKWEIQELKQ [4H2618-bN]
Measured: -0.0801

*Q* # input binder: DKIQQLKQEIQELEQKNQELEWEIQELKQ [4H2610-bN] ; wanted: its interaction score
*A* 0.616
